Tested on: SK-OV-3 ovarian
Experiment: NCI tumour cell line growth inhibition, 48 h

| Compound | TGI |
| --- | --- |
| Cc1cc(=O)[nH]c(NNC(C#N)c2cccc([N+](=O)[O-])c2)n1 (stereo not drawn) | > 100 µM |
| Cn1c(=O)oc2cc(C3CCC(=O)N3Cc3csc(-c4ccccc4)n3)ccc21 (stereo not drawn) | > 100 µM |
| CCOc1c(Br)cc(Br)cc1C=C(C#N)C#N | > 10 µM |
| CN(C)CCC(=O)Nc1ccc(-n2cc(-c3cccc(NC(=S)Nc4cccc(-c5cn(-c6ccc(NC(=O)CCN(C)C)cc6)nn5)c4)c3)nn2)cc1 | > 100 µM |
| C[C@@]1(F)[C@H](O)[C@@H](CO)O[C@H]1n1ccc(=O)[nH]c1=O | > 100 µM |
| COc1cccc(-c2cc(C(=O)Nc3ccc(/C=C/c4ccc(OC5CCN(C)CC5)cc4)cc3)ccc2OC)c1 | 5.13 µM |
| Cn1c(I)c(C#C[Si](C)(C)C)c(=O)n(C(=O)c2ccccc2)c1=O | 21.7 µM |
| OCc1ccc(N(Cc2ccc(F)cc2)Cc2ccc(F)cc2)cc1Cl | 26.5 µM |
| CCOC(=O)Nc1ccc2nc(-c3cscn3)[nH]c2c1 | 29.8 µM |
| Cc1cc(Cl)ccc1NC(=O)CCCC(=O)C1C/C(=N/O)CC/C1=N\O (stereo not drawn) | > 100 µM |
| O=c1c2cc(Br)cc(Br)c2[nH]c(=S)n1-c1ccc(N=Nc2ccc(O)c3cccnc23)cc1 | > 100 µM |
| CSc1nc(Nc2cccc(NC(=O)CCl)c2)c(C#N)c(-c2cccc([N+](=O)[O-])c2)n1 | 17.3 µM |
| Cn1/c(=N\N=C2\C=C3CCCCC3(C)CC2)sc2ccccc21 (stereo not drawn) | > 100 µM |
| CC(C)Cc1cnc(CC(C)C)c(=O)[nH]1 | > 100 µM |
| Cc1c(C)c([N+](=O)[O-])c2c(c1N)C(=O)c1ccccc1C2=O | > 100 µM |
| NCCO/C=C/C(N)C(=O)O (stereo not drawn) | > 100 µM |
| CC(C)(C)C#COC(=O)c1ccccc1 | > 100 µM |
| CCOP(=O)(/C=C/n1cc(C)c(=O)[nH]c1=O)OCC | > 100 µM |

----------
Test system: MDA-MB-231 breast
Experiment: NCI tumour cell line growth inhibition, 48 h
# cutoff 20 µM applies to TGI; >= gives criterion met, < gives criterion not met

| Molecule | Assigned label |
| --- | --- |
| C[n+]1cccc2ccc3cccnc3c21 | criterion met |
| CSc1nc(Nc2cccc(NC(=O)CCl)c2)c(C#N)c(-c2cccc([N+](=O)[O-])c2)n1 | criterion not met |
| COc1ccc(N2C(=O)C3c4[nH]c5c(C)cccc5c4C4CCC(C(C)C)CC4C3C2=O)cc1 (stereo not given) | criterion met |
| C=C(Br)CN=CN(C)C | criterion met |
| CCc1nc(N)c2nc(-c3cccs3)oc2n1 | criterion met |
| O=C1c2cccc3cccc(c23)C(=O)N1CCCCCN1CCN(CCN=c2cc3n(-c4ccc(Cl)cc4)c4ccccc4nc-3cc2Nc2ccc(Cl)cc2)CC1 | criterion met |
| O=c1c(-c2ccc3c(c2)OCO3)coc2c3c(ccc12)OCO3 | criterion met |
| COc1ccc2c(c1)C(=O)c1c-2c(OCCCN(C)C)nc2cc(Br)ccc12 | criterion not met |
| O=C1[C@@H]2[C@@H](CN3CN(c4ccccc4)N=C(c4ccccc4)[C@@]23c2ccccc2)C(=O)N1c1ccccc1 | criterion not met |
| C/C(=N\Nc1nc2ccccc2s1)c1ccncn1 | criterion met |

----------
Tested on: UACC-257 melanoma
Experiment: NCI tumour cell line growth inhibition, 48 h
TGI reference

| Compound | TGI |
| --- | --- |
| [N-]=[N+]=CC(=O)CCC(N)C(=O)O (stereo unspecified) | > 250 µM |
| CC(C)(C)C(=O)Nc1c(C=O)ccc2[nH]cnc12 | > 100 µM |
| CCOP(=O)(/C=C/n1cc(C)c(=O)[nH]c1=O)OCC | > 100 µM |
| O=C1/C(=C/c2ccccc2)Oc2cc(O)ccc21 | > 100 µM |
| O=C(O)C(Cc1ccccc1)NCc1c(O)ccc2c(-c3ccccc3)cc(=O)oc12 (stereo unspecified) | > 100 µM |
| O=C1c2cccc3cccc(c23)C(=O)N1CCCCCN1CCN(CCN=c2cc3n(-c4ccc(Cl)cc4)c4ccccc4nc-3cc2Nc2ccc(Cl)cc2)CC1 | 31.1 µM |
| Cc1cc(=O)[nH]c(NNC(C#N)c2cccc([N+](=O)[O-])c2)n1 (stereo unspecified) | > 100 µM |
| CCCCNC(c1ccc(Cl)cc1)C(O)c1ccc(Cl)cc1 (stereo unspecified) | 5.03 µM |
| CC(Nc1ccc(Cl)cc1)c1ccncc1 (stereo unspecified) | > 100 µM |
| COC(=O)C(C(=O)C(=O)Nc1c(C)cccc1C(C)(C)C)c1nc2ccc(Cl)cc2[nH]c1=O (stereo unspecified) | > 100 µM |
| O=C1c2cc3c(cc2-c2c1c1cc(F)c(F)cc1c(=O)n2CCCn1ccnc1)OCO3 | 0.65 µM |

----------
Test system: NCI/ADR-RES ovarian
Test: NCI tumour cell line growth inhibition, 48 h
# TGI per entry

| Compound | Target desc | TGI |
| --- | --- | --- |
| Clc1ccc2c(NCCCCCCNc3ccnc4cc(Cl)ccc34)ccnc2c1 | NCI/ADR-RES ovarian | 27.9 µM |
| CCN1CC2(C)CCC(OC)C34C5CC6CCC(O)(C5C(=O)O6)C(C(O)C23)C14 (configuration not stated) | NCI/ADR-RES ovarian | > 100 µM |
| COC(=O)[C@]1(c2cc3ccccc3n2S(=O)(=O)c2ccccc2)CC2CN(C(=O)OCc3ccccc3)C1C1OC(C)(C)OC21 (some centres not stated) | NCI/ADR-RES ovarian | > 100 µM |
| CCC[CH2][Sn-]([CH2]CCC)([CH2]CCC)[O]C(=O)C(C)C | NCI/ADR-RES ovarian | 0.46 µM |
| CCN(CC)C(=S)SC(C(=O)Nc1nnc(-c2ccc(Cl)cc2)o1)c1ccccc1 (configuration not stated) | NCI/ADR-RES ovarian | 30.5 µM |
| COc1ccc(-c2ccc(C3CC(c4ccccc4)=NN3)o2)c([N+](=O)[O-])c1 (configuration not stated) | NCI/ADR-RES ovarian | > 100 µM |
| N[C@@H](CCC(=O)NC(Cc1ccccc1)C(=O)NCP(=O)(O)O)C(=O)O (some centres not stated) | NCI/ADR-RES ovarian | > 100 µM |
| CC(C)(C)C[C@H]1N[C@@H](C(=O)NC2CCC(O)CC2)[C@H](c2cccc(Cl)c2F)[C@@]12C(=O)Nc1cc(Cl)ccc12 (some centres not stated) | NCI/ADR-RES ovarian | 33.9 µM |
| COc1ccc2[nH]c(C(=O)N3CCN(C(=O)OCc4ccc5c(Cl)cc(Cl)c(O)c5n4)CC3)cc2c1 | NCI/ADR-RES ovarian | 6.37 µM |
| O=c1[nH]c(C2CCCN2)nc2c1oc1ccc(Cl)cc12 (configuration not stated) | NCI/ADR-RES ovarian | > 100 µM |
| COc1cc(/C=N/NC(=O)c2cnn3c2NC(c2ccccc2)C3)ccc1OC1CCCC1 (configuration not stated) | NCI/ADR-RES ovarian | 4.35 µM |
| COC(=N)C1(C#N)NC(c2ccsc2)C(C#N)(C#N)NC1c1ccsc1 (configuration not stated) | NCI/ADR-RES ovarian | > 100 µM |
| CC(O)c1nc(C#N)c(N)o1 (configuration not stated) | NCI/ADR-RES ovarian | > 100 µM |
| C=C(NC(=O)C(=C)NC(=O)c1ccc2c(n1)-c1coc(n1)C(=C)NC(=O)C(=C)NC(=O)c1nc(oc1C)C(=C)NC(=O)C(C(C)(C)O)NC(=O)C(=C)NC(=O)c1coc(n1)/C(=C/C)NC(=O)[C@H]([C@@H](C)O)NC(=O)c1csc-2n1)C(N)=O (some centres not stated) | NCI/ADR-RES ovarian | > 87.5 µM |
| O=C1C(=O)c2c(nc3ccc(C(F)(F)F)cn23)-c2ccccc21 | NCI/ADR-RES ovarian | 0.581 µM |
| COC1=CC(c2ccc[nH]2)=N/C1=C\c1[nH]c(C)c(C(=O)CCCCCCCCC(=O)O[C@H]2CC[C@H]3C4CCc5cc(O)ccc5C4CC[C@]23C)c1C (some centres not stated) | NCI/ADR-RES ovarian | > 50 µM |
| N#Cc1c(NC(=S)Nc2ccc(Cl)cc2)sc2c1CCN(N1CCc3c(sc(NC(=S)Nc4ccc(Cl)cc4)c3C#N)C1)C2 | NCI/ADR-RES ovarian | > 100 µM |

----------
Test system: DU-145 prostate
Assay: NCI tumour cell line growth inhibition, 48 h
Would you mind labelling by TGI? At or over 30 µM is criterion met, under is criterion not met.

| Compound | Assigned label |
| --- | --- |
| COc1ccc(-c2ccc(C3CC(c4ccccc4)=NN3)o2)c([N+](=O)[O-])c1 (stereo not given) | criterion met |
| Cn1c(COC(=O)NCCc2ccccn2)nc2c(N3CCOCC3)nc(Cl)nc21 | criterion not met |
| N#CCCC(C=O)(CCC#N)CCC#N | criterion met |
| Cn1c(=O)c2c(nc3[nH]c(=O)c(Br)cn32)n(C)c1=O | criterion met |
| CCC1(O)CC(CCN(Cc2ccccc2)C(=O)OCc2ccccc2)C(OCc2ccccc2)C1O (stereo not given) | criterion met |
| CCN(CC)C(=S)SC(C(=O)Nc1nnc(-c2ccc(Cl)cc2)o1)c1ccccc1 (stereo not given) | criterion met |
| Cc1nc2c(Br)cc(Br)cc2c(=O)n1-c1ccccc1NC1OC(CO)C(O)C(O)C1O (stereo not given) | criterion met |
| N=C1CCCC1C(=S)SCCC(N)=O (stereo not given) | criterion met |
| COC1/C=C/C(C)C(O)CC(O)/C=C/C(C)C(C(C)C(OC)C(C)CCC(=O)C(C)C(C/C=C/N(C)C=O)OC)OC(=O)/C=C/C=C(\C)CC(OC)CC2=CC(=O)O[C@@H](C(C)C(OC)C1)[C@H]2O (stereo not given in full) | criterion not met |
| C=C(Br)CN=CN(C)C | criterion met |
| CC1(C)CC(C)(C)c2cc(NC(=S)Nc3ccc([N+](=O)[O-])cc3)ccc2S1 | criterion met |
| Cc1n[nH]c2ccccc2c1=O | criterion met |
| Nc1cc2c3c(cccc3c1)C(=O)N(CCN1CCCC1)C2=O | criterion met |
| Oc1ccc(Cl)cc1C=Nc1cnc2ccccc2c1 | criterion met |
| Nc1[nH]c(=O)nc2c1ncn2C1OC(CO)C(O)C1O (stereo not given) | criterion met |
| O=C1c2cccc3cccc(c23)C(=O)N1CCCCCN1CCN(CCN=c2cc3n(-c4ccc(Cl)cc4)c4ccccc4nc-3cc2Nc2ccc(Cl)cc2)CC1 | criterion met |
| Nc1c(C(=O)c2ccc(Cl)c(Cl)c2)[nH]c(NCc2ccccc2)c1C(=S)Nc1ccccc1 | criterion met |
| C/C(=N/NC(=S)Nc1ccccc1)c1nc2ccc(Cl)cc2[nH]1 | criterion not met |
| C[C@]12CC[C@H]3[C@@H](CC=C4C[C@@H](N5CCCC5)CC[C@@]43C)[C@@H]1C[C@H](N1CCCCC1)[C@@H]2O | criterion met |
